Biological target: T1, human galectin-10-His (recombinant human galectin-10 with TEV-cleavable N-terminal His-tag) (human)
T1 construct: SEC-MALLS: dimer in solution; also called Gal10-His; humanGal10-His
T1 chain: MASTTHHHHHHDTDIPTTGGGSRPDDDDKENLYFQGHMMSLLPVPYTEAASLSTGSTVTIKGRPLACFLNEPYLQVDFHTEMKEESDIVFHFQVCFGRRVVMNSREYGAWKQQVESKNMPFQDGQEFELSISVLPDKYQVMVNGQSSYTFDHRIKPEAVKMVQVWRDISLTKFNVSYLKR
Experiment: BLI tandem on galectin-10-His; competitor: saturating 2C07 mIgG1 (10 ug/mL)
Label True when binding signal (nm) is at or above 0.03 nm; otherwise label False.

binder	answer.label
4E08 mouse IgG1 (antibody, V domains shown, VH on mouse IgG1 heavy chain constant domains (CH1-CH2-CH3), VL on mouse lambda light chain constant domain; also called 4E8; 4E08 mIgG1) VH: QVQRQESGPGLVKPSQTLSLTCTVSGGSITTSYYAWSWIRQPPGKGLEWMGVIASDGSTYYSPSLKSRTSISRDTSKNQFSLQLSSVTPEDTAVYYCALYIRGSSWSGWSAYDYWGQGTQVTVSS VL: QPVLNQPSAVSVSLGQTARITCQGGNFGYYYGSWYQQKPGQAPVLVIYKDSERPSGIPERFSGSSSGGTATLTISRAQAEDEADYYCQSADSSDNPVFGGGTHLTVL	False
1D11 mouse IgG1 (antibody, V domains shown, VH on mouse IgG1 heavy chain constant domains (CH1-CH2-CH3), VL on mouse lambda light chain constant domain; also called 1D011; 1D11 mIgG1) VH: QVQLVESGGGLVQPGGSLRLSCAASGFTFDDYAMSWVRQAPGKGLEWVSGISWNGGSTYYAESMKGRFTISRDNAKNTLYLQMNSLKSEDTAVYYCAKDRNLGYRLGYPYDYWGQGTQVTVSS VL: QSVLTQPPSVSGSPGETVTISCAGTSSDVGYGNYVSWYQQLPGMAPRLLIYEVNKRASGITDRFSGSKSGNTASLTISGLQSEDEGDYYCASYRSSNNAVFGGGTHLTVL	False
6A05 mouse IgG1 (antibody, V domains shown, also called 6A05 mIgG1) VH: EVQLVESGGGLVQPGGSLRLSCAASGFTFSSYAMSWVRQAPGKGLEWVSAINSGGGWTSYVDSVKGRFTISRDNAKNTLYLQMDSLKPEDTAVYYCTKYSGPELNTQYGMDYWGKGTLVTVSS VL: NFMLTQPSAVSVSLGQTARITCQGGNFGSYYASWYQQKPGQAPVLVIYRDSGRPSGIPERFSGSSSGDTATLTISGAQAEDEADYYCQSGSSSDNTVFGGGTHLTVL	False
6B06 mouse IgG1 (antibody, V domains shown, also called 6B06 mIgG1) VH: QVQRQESGPGLVKPSQTLSLTCTVSGGSITTNYYSWSWIRQPPGKGLEWIGYIAYSGSTSYSPSLKSRTSISRDTSNNQFSLQLSSVTPEDTAVYYCARSRSSPTTFGMDYWGKGTLVTVSS VL: SSALTQPSAVSVSLGQTARITCQGGNFGRYYVSWYTQKPGQAPVLVIYQDSERPTGIPERFSGSSSGDTATLTISGAQAEDEADYYCQSGTSSDNIVFGGGTHLTVL	True
6A08 mouse IgG1 (antibody, V domains shown, also called 6A08 mIgG1) VH: QVQLVESGGGLVQPGGSLRLSCAASGFTFSSYAMSWVRQAPGKGPEWVSAINRGGGSTYYADSVKGRFTISRDNAKNTLYLQMNSLKPEDAAVYYCATPGDRLWYYRYDYWGQGAQVTVSS VL: QTVVTQEPSLSVSPGGTVTLTCGLSSGSVTSSNYPGWYQQTPGQAPRLLIYNTNSRYSGVPNRFSGSISGNKAALIISGAQPEDEADYHCALNRVRGTYRVFGGGTHLTVL	True
